Measured IC50, listed per entry.
Target: HLA-DR4 (HLA-DRA*0101,-DRB1*0401) (Homo sapiens, UniProt P01903+P01911, A100K/A169T/F76Y/I96L/K127E/L162R/M171V/N62H/P40V/Q125Y/R42H/S133A/S149N/S66Y/V115G/V209L/W38E)
Assay: Competition fluorescence polarization peptide binding assay, HLA-DR4 with HLA-DM
Conditions: competition with Alexa488-HA peptide 25 nM, HLA-DR4 and HLA-DM 100 nM each, 1 mM DTT, 3 days at 37°C, citrate pH 5/5.5; mean of single fit to triplicate values; read-out: DR4 IC50
Ends that are not written are not given here.
readoutName: IC50 (µM)

# substance, readoutName, units, qualifierOperator, reportedMeasurement
records = [
    ("Ac-GALLGAPPPLVPAP [gaLLGAPPPLVpap]", "IC50", "µM", "=", 8.8),
    ("NYAILRNLQP [nYAILRNLQP]", "IC50", "µM", "=", 56.4),
    ("MLQGTSSVLLLWG-NH2 [mLQGTsSVLLlwg]", "IC50", "µM", "=", 79.6),
    ("Ac-DPFRLQSTSQHN [dpFRLQsTsQHn]", "IC50", "µM", "=", 1.3),
    ("Ac-PQGFQGNPGEPGE [pqgFQGNPGEPGe]", "IC50", "µM", ">", 100),
    ("Ac-HQVSINNTAVMQRL [hqVSINNTAVMqrl]", "IC50", "µM", "=", 4.7),
    ("Ac-SPWIDASTAIDA [spWIDASTAIDa]", "IC50", "µM", "=", 60.1),
    ("Ac-NGVVGPTGPVGAAGP-NH2 [ngvVGPTGPVGAagp]", "IC50", "µM", ">", 100),
    ("MGPMGPRGPPGPA-NH2 [MGPMGPRGPpgpa]", "IC50", "µM", ">", 100),
    ("Ac-NGVVGPTGPVGAAGPA-NH2 [ngVVGPTGPVGaagpa]", "IC50", "µM", ">", 100),
]
